Tested on: Human immunodeficiency virus 2
Assay: Antiviral activity against HIV2 ROD infected in human CEM-SS cells assessed as inhibition of virus-induced cytopathic effect by XTT assay
Type: functional, organism-based, ISOLATE ROD
Conditions: Human immunodeficiency virus 2, ISOLATE ROD, CEM-SS; read-out: EC50
For each of the compounds below, state its EC50.
Give bare numbers, in nM.

Illustrative cases are given below, each with its answer.
Cc1cc(C)cc(Oc2c(C(C)C)c(=O)[nH]c(=O)n2CC2CCCC2)c1
1300
CCc1c(Oc2cc(C)cc(C)c2)n(CC2CCCCC2)c(=O)[nH]c1=O
5100
CCc1c(C(=O)c2cc(C)cc(C)c2)n(Cc2ccccc2)c(=O)[nH]c1=O
400

Quick one: give me EC50 for each item below, same order please.
1. CCc1c(Sc2cc(C)cc(C)c2)n(CCC2=CCCC2)c(=O)[nH]c1=O
2. CCc1c(Sc2cc(C)cc(C)c2)n(CC2CC2)c(=O)[nH]c1=O
3. CCc1c(Sc2cc(C)cc(C)c2)n(CCC2CCCC2)c(=O)[nH]c1=O
4. CCc1c(Sc2cc(C)cc(C)c2)n(CCC2CC=CC2)c(=O)[nH]c1=O
5. CCc1c(C(=O)c2cc(C)cc(C)c2)n(CC2=CCCC2)c(=O)[nH]c1=O
6. CCc1c(C(=O)c2cc(C)cc(C)c2)n(CC2CCCC2)c(=O)[nH]c1=O
7. CCc1c(Oc2cc(C)cc(C)c2)n(CC2CCC2)c(=O)[nH]c1=O

1. 19200
2. 100
3. 26900
4. 1700
5. 1400
6. 800
7. 7200
